Test system: SF-268 CNS
experiment.notes: NCI-60 one-dose screen, 48 h (100 = growth as untreated, 0 = no growth, -100 = all killed)
applied.conditions: 10 µM
Compounds without any hit were thinned out: in the full panel of roughly 83,000, 20% have a hit.
This section presents compounds with their documented growth values.
reported.metric: growth (%)

• CC(C)C(=O)Nc1ccc(C(=O)NC(=S)Nc2ccc(C(=O)O)cc2)cc1 = 93.9
• O=C1Nc2ccc(Cl)cc2/C1=C/c1ccc(OCc2ccc(Br)cc2F)cc1 = 20.3
• O=C(c1ccc(Cl)cc1)C1[C@H](c2ccc(Br)cc2)[C@@H](c2ccccc2)NC12C(=O)Nc1ccccc12 (some centres not stated) = 12.1
• CO[C@@H]1CSSC1Cn1nc(-c2ccc(Oc3ccccc3)cc2)c2c(N)ncnc21 (some centres not stated) = 39.5
• CN1C(=O)N(C)C2SC(N/N=C/c3ccccc3F)=NC21 (configuration not stated) = 78.7
• COc1ccc(N2N=C(c3ccc4c(c3)OCCO4)CC2c2cccc(NC(=O)CCCNS(=O)(=O)c3ccc(F)cc3)c2)cc1 (configuration not stated) = 56.2
• Nc1nc(-c2ccccc2)cs1 = 48.3
• COc1cc(/C=C/C(=O)c2ccc(F)cc2)ccc1Oc1nc(Nc2ccc(F)cc2)nc(N(C)C)n1 = 54.8
• COc1ccc2[nH]c(=O)c(CSc3nccc(-c4ccc(Cl)cc4)n3)cc2c1 = 28.8
• Cc1ccc(CNC(=O)Cc2ccc3c(c2)CN(C2CCC(=O)NC2=O)C3=O)cc1 (configuration not stated) = 9.5
• CS(=O)(=O)Nc1ccc(-c2ccc3c(c2)ncn3-c2ccc(NC(=O)Nc3ccc(Br)cc3)cc2)cc1 = 26.4
• CN1CCN(c2ccc(Nc3nc(NCCNC(=O)c4ccc(C(F)(F)F)cc4)c4sccc4n3)cc2)CC1 = 21.8
• Cc1ccc(/C=C/C(=O)c2ccc(NC(=O)CSc3nnc(-c4c[nH]c5ccccc45)n3-c3ccccc3)cc2)c(C)c1 = 72.3
• COc1ccc(/C=C/C(=O)c2ccc(NC(=O)CN3C(=O)NC(C)(c4ccccc4)C3=O)cc2)cc1 (configuration not stated) = 67.3
• O=C1Nc2cc(Cl)ccc2/C1=C/c1cccc(OCc2ccc(Br)cc2F)c1 = 9.99
• O=C(CSc1nnc(-c2c[nH]c3ccccc23)n1-c1ccccc1)Nc1ccc(C(=O)/C=C/c2ccc(Cl)cc2)cc1 = 56.9
• COc1ccc(NC(=O)CSc2nnc(-c3ccc4nc(-c5ccc(Cl)cc5)[nH]c4c3)o2)cc1 = 48
• COc1ccc2nc(Cl)c(-c3cc(-c4ccccc4)nc(=O)[nH]3)cc2c1 = 60.2
• O=C(CSc1nnc(-c2c[nH]c3ccccc23)n1-c1ccccc1)Nc1ccc(C(=O)/C=C/c2ccc(Br)cc2)cc1 = 67
• COc1ccc2nc(Cl)c(-c3cc(-c4ccccc4)nc(=S)[nH]3)cc2c1 = 67.9
• O=C(CNc1nc(-c2ccccc2)cs1)Nc1ccc([N+](=O)[O-])cc1 = 38.4
• Cc1ccc(-c2cc(C(=O)N=Nc3c(O)[nH]c4ccc(Br)cc34)c3ccccc3n2)cc1 = 80.9
• O=C(/C=C/Nc1ccc(F)cc1F)c1ccc2c(c1)Nc1ccccc1S2 = 82.2
• Cc1cc2c(c(O)c1Br)-c1ncoc1C(=O)[C@]1(C)CC[C@H](C(C)C)[C@H]21 = 49.4
• O=C(CSc1nnc(-c2ccc3nc(-c4ccccc4)[nH]c3c2)o1)Nc1ccc(Cl)cc1 = 59.6
• CN1CCN(Cc2ccc(C(=O)Nc3cccc(Nc4ccc5c(O)cccc5n4)c3)cc2C(F)(F)F)CC1 = 2.2
• CC(=O)Nc1ccc(-n2cnc3cc(-c4ccc(O)cc4)ccc32)cc1F = 40.6
• COc1ccc(/C(C)=N/N=C2C(=O)N(C)c3ccc(Br)cc32)cc1S(N)(=O)=O = 33.4
• CC(=C(c1ccc(OCCN2CCCCC2)cc1)c1ccc(OCCN2CCCCC2)cc1)c1ccccc1 = 34.5
• Cc1ccn2c(C(=O)c3ccccc3)cc(-c3cc(-c4ccc(N(C)C)cc4)c(C#N)c(N)n3)c2c1 = 61.2
• CN(C)CCNC(=O)OCCCCOc1cc(O)c2c(=O)cc(-c3ccccc3)oc2c1 = -44.9
• O=C(NO)c1ccc(Cn2ccc3c(Nc4ccccc4)ncnc32)cc1 = 30.8
• CN1CCc2c(sc3ncnc(N/N=C/c4cn(-c5ccccc5)nc4-c4ccc(Cl)cc4)c23)C1 = 30.7
• CC(=O)c1ccc(NC(=O)NCn2c(=O)[nH]c3ccccc3c2=O)cc1 = 128
• CCOc1ccc(Nc2nc3ccccc3nc2Nc2ccc(OCC)cc2)cc1 = 40
• COC(=O)C[C@](O)(CCCC(C)(C)O)C(=O)O[C@H]1C(OC)=C[C@@]23CCC(=O)N2CCc2cc4c(cc2[C@@H]13)OCO4 = 101
• CC(=O)c1ccc(Nc2nc(SCCC(C)C)nc(-c3ccc(F)cc3)c2C#N)cc1 = 52.9
